target: SARS-CoV-2 Main Protease (SARS-CoV-2); conditions: 20.0 µM
readout.name: inhibition (%)
Express your answer in %, writing the number without its unit.

Worked cases, answers included:
{"molecule": "NC(=O)CCN(C(=O)CCl)C1CCS(=O)(=O)C1 (stereo not given)", "inhibition [%]": 16.3}
{"molecule": "O=C(NC1CCCCC1NC(=O)C1CCCCC1)c1ccncc1 (stereo not given)", "inhibition [%]": 0}
{"molecule": "C=CC(=O)N(c1ccc(C(C)(C)C)cc1)C(C(=O)NCCCSC)c1cccnc1 (stereo not given)", "inhibition [%]": 70}

The reported value for C=CC(=O)N(c1ccc(C(C)(C)C)cc1)C(C(=O)NC(C)(C)C)c1cncc2ccccc12 (stereo not given) in terms of inhibition is 0

Query C=CC(=O)N(C1COC2(CCC2)C1)C(C(=O)NC(C)(C)C)c1cccnc1 (stereo not given) yields inhibition of 0

Entry C=CC(=O)N(c1ccc(C2(C)CC2)cc1)C(C(=O)NC(C)(C)C)c1cccnc1 (stereo not given) — recorded inhibition = 0
